- Target Entity: Nav 1.7 (Homo sapiens (Human), UniProt Q15858)
- Sequence (Q15858 whole entry): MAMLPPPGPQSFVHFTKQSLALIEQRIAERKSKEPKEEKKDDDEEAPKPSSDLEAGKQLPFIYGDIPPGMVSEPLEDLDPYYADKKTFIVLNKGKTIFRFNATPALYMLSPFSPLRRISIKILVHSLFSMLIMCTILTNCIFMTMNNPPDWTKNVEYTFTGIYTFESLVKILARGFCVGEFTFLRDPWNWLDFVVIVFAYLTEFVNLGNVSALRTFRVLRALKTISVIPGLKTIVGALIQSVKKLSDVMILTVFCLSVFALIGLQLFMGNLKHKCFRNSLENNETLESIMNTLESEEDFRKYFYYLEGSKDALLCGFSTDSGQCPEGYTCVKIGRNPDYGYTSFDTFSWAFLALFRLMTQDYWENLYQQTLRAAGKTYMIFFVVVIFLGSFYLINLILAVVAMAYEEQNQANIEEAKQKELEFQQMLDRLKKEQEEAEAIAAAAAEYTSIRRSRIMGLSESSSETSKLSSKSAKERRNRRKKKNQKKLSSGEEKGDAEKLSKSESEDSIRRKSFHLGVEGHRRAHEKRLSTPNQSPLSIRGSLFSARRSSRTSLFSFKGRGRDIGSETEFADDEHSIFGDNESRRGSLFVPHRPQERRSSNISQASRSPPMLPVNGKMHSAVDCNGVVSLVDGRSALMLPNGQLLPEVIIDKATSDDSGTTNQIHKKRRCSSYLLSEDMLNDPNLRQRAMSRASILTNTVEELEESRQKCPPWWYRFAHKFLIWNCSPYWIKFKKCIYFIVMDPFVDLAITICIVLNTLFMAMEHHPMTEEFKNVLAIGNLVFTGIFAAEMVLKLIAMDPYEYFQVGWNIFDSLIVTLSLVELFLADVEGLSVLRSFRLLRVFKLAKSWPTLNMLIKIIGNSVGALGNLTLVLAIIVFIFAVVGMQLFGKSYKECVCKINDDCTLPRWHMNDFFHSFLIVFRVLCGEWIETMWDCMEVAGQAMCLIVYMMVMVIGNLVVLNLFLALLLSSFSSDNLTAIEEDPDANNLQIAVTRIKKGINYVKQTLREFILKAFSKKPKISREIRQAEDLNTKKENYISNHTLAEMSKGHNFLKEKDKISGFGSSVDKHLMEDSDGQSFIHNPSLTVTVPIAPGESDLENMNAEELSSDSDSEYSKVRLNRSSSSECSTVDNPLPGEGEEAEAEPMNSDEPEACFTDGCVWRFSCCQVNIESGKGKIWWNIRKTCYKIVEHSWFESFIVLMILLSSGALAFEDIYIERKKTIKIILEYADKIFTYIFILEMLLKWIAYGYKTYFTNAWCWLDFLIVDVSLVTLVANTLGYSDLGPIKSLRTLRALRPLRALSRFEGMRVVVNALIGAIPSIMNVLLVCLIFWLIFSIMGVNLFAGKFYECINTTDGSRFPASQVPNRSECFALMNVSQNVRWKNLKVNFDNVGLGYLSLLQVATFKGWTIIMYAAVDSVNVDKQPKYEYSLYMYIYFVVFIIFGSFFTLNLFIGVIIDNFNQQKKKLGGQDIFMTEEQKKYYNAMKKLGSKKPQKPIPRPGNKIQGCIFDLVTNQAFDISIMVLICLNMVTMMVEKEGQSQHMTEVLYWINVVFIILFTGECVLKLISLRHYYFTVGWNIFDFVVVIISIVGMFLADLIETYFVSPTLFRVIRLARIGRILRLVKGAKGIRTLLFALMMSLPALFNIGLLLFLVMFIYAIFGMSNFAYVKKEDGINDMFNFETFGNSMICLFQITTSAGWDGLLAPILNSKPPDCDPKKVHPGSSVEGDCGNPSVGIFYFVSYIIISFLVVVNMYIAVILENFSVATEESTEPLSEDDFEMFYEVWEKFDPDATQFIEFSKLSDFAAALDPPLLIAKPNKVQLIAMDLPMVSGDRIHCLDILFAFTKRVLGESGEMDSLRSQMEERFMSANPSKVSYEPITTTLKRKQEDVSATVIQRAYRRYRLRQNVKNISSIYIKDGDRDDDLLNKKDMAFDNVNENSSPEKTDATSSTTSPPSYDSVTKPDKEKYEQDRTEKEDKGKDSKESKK
- Protocol Summary: Nav 1.7 in vitro PatchExpress (PX) assay, whole cell voltage clamp
- Type: cell-based
- Conditions Used: 293 cells stably transfected with human Nav1.7; partially inactivated state (20 to 50% inactivation)
We label by threshold. Values of IC50 strictly beneath 2 µM are condition met. Values of 2 µM and up are condition not met.

is_below(IC50, 2 µM) for O=S(=O)(Nc1ccncn1)N1CCc2c(cccc2-c2ccc(C(F)(F)F)cc2Br)C1 ? condition not met

is_below(IC50, 2 µM) for O=S(=O)(Nc1ncns1)N1CCc2c(cccc2-c2ccc(C(F)(F)F)cc2F)C1 ? condition not met

is_below(IC50, 2 µM) for COc1cc(C(F)(F)F)ccc1-c1cccc2c1CCN(S(=O)(=O)Nc1ncns1)C2 ? condition met

is_below(IC50, 2 µM) for C[N+]1(C)CC=C(c2cc(C(F)(F)F)ccc2-c2cccc3c2CCN(S(=O)(=O)Nc2ncns2)C3)CC1 ? condition not met

is_below(IC50, 2 µM) for Cc1cncn1-c1cc(C(F)(F)F)ccc1-c1cccc2c1CCN(S(=O)(=O)Nc1ncc(F)s1)C2 ? condition met

is_below(IC50, 2 µM) for CN1CC=C(c2cc(C(F)(F)F)ccc2-c2cccc3c2CCN(S(=O)(=O)Nc2ncc(F)s2)C3)CC1 ? condition met

is_below(IC50, 2 µM) for O=S(=O)(Nc1ncns1)N1CCc2c(cccc2-c2ccc(Cl)cc2)C1 ? condition not met

is_below(IC50, 2 µM) for Cn1cc(-c2cc(C(F)(F)F)ccc2-c2cccc3c2CCN(S(=O)(=O)Nc2ncns2)C3)cn1 ? condition not met
